# credit: patent US9789181B2

- experimental.target: HLA DRB1 *0404 (Homo sapiens, UniProt P01903+P01911, A100R/A169T/F76Y/I96L/K127E/L162R/M171V/N62H/P40V/Q125Y/R42H/S133A/S149N/S66Y/V209L/W38E)
- procedure.text: IC50nM to purified HLA | DRB1 *0404
Where no end group is shown, it is not given here.
readout.type: IC50
Numeric answer plus unit only.

Look over these answered cases.
entry.sequence	IC50
AAAHFVAAFTLHAAA [SEQ ID NO: 28]	3.1 nM
AAAHFVAANTLKADA [SEQ ID NO: 34]	13 nM
AAAEFVAAWTLHAAA [SEQ ID NO: 46]	4.1 nM

For every record below, what is its IC50?
1. AAAHFVAAWTLKADA [SEQ ID NO: 31]
2. AAAHFVAAYTLKADA [SEQ ID NO: 32]
3. AAADFVAAFTLHAAA [SEQ ID NO: 43]
4. AAAKFVAAWTLKADA [SEQ ID NO: 30]
5. AAAHFVAAFTLKAEA [SEQ ID NO: 38]
6. AAADFVAAYTLHAAA [SEQ ID NO: 42]
7. AAAHFVAAYTLKAEA [SEQ ID NO: 37]
8. AAAEFVAAYTLHAAA [SEQ ID NO: 47]

Result:
["7.1 nM", "9.6 nM", "3.7 nM", "9.7 nM", "8.1 nM", "5.3 nM", "5.3 nM", "3.2 nM"]

For every record below, what is its IC50?
1. AAAEFVAAFTLHAAA [SEQ ID NO: 48]
2. AAAHFVAAFTLKADA [SEQ ID NO: 33]

Result:
["2.6 nM", "9.5 nM"]
